The measured values listed here are drawn from patent US7141598B2.

Biological target: human CYP3A4 (Homo sapiens, UniProt P08684)
Sequence (P08684 whole entry): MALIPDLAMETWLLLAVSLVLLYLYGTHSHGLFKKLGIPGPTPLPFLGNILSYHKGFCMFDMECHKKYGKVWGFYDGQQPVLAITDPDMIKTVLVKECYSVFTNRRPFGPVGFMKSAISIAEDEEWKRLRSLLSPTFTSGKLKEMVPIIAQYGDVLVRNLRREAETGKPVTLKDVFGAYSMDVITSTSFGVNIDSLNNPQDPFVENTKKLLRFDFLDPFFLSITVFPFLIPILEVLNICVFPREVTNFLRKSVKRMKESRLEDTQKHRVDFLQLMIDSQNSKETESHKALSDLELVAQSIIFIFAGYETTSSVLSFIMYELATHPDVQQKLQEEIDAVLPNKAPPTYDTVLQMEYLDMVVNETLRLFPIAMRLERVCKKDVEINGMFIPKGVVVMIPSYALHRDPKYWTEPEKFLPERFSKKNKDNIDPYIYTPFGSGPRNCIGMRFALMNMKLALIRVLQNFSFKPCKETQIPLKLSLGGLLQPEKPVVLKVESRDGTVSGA
Experiment: Assay of human CYP3A4-inhibitory activity
Settings: testosterone 100 μM, human CYP3A4 10 pmol/ml, 37° C., 30 min; read-out: IC50 (CYP3A4 inhibition, 6β-hydroxytestosterone production)
property_name: pIC50
Just the number, please; pIC50 means minus log10 of the concentration in mol/L.

For OC1(c2cccc(-c3ccc(F)cc3)c2)CCn2cncc21 (centres unmarked) [Example 3] the molecule record lists pIC50 as 5.02
